# Tested on: A549
# PROTOCOL DESCRIPTION: Cytotoxicity in human A549 cells assessed as reduction in cell viability incubated for 72 hrs by SRB assay
# Type: functional, cell-based
# ASSAY CONDITIONS: A549, 72 h
I'd be grateful if you could share measured IC50 for these entries.
# output: bare number, implied unit µM

Form field: IC50 recorded for O=C(Nc1ccn([C@@H]2O[C@H](CO)[C@@H](O)C2(F)F)c(=O)n1)OCc1cn(C[C@H]2O[C@@H](n3cc(F)c(=O)[nH]c3=O)C[C@@H]2O)nn1 with A549 (enter value)
8.01

Form entry - test system: A549; read-out: IC50; compound: Nc1ccn([C@@H]2O[C@H](CO)[C@@H](O)C2(F)F)c(=O)n1 [GEMCITABINE]
5.05

What measured IC50 is associated with Cc1cn([C@H]2C[C@H](OC(=O)OC(C)(C)C)[C@@H](Cn3cc(COC(=O)Nc4ccn([C@@H]5O[C@H](CO)[C@@H](O)C5(F)F)c(=O)n4)nn3)O2)c(=O)[nH]c1=O on A549?
8.5

Request body: readout IC50, system A549, query Cc1cn([C@H]2C[C@H](OC(=O)OC(C)(C)C)[C@@H](Cn3cc(CNc4ccn([C@@H]5O[C@H](CO)[C@@H](O)C5(F)F)c(=O)n4)nn3)O2)c(=O)[nH]c1=O . Return the value.
6.07

Request body: readout IC50, system A549, query CC(C)(C)OC(=O)O[C@@H]1[C@@H](Cn2cc(CNc3ccn([C@@H]4O[C@H](CO)[C@@H](O)C4(F)F)c(=O)n3)nn2)O[C@@H](n2ccc(NC(=O)OCc3ccccc3)nc2=O)C1(F)F . Return the value.
3.24

Give IC50 (A549) of the following compound: Nc1ccn([C@@H]2O[C@H](Cn3cc(COC(=O)Nc4ccn([C@@H]5O[C@H](CO)[C@@H](O)C5(F)F)c(=O)n4)nn3)[C@@H](O)C2(F)F)c(=O)n1
11.4

Form entry - test system: A549; read-out: IC50; compound: O=C(Nc1ccn([C@@H]2O[C@H](Cn3cc(CNc4ccn([C@@H]5O[C@H](CO)[C@@H](O)C5(F)F)c(=O)n4)nn3)[C@@H](O)C2(F)F)c(=O)n1)OCc1ccccc1
4.31

Give recorded IC50 with A549 for the following compound: Cc1cn([C@H]2C[C@H](O)[C@@H](Cn3cc(CNc4ccn([C@@H]5O[C@H](CO)[C@@H](O)C5(F)F)c(=O)n4)nn3)O2)c(=O)[nH]c1=O
126

// fetch A549 IC50 for Nc1ccn([C@@H]2O[C@H](Cn3cc(CNc4ccn([C@@H]5O[C@H](CO)[C@@H](O)C5(F)F)c(=O)n4)nn3)[C@@H](O)C2(F)F)c(=O)n1
16.1

Record lookup: for A549, what IC50 belongs to Cc1cn([C@H]2C[C@H](n3cc(CNc4ccn([C@@H]5O[C@H](CO)[C@@H](O)C5(F)F)c(=O)n4)nn3)[C@@H](CO)O2)c(=O)[nH]c1=O ?
10.6

Form field: IC50 recorded for Cc1cn([C@H]2C[C@H](n3cc(COC(=O)Nc4ccn([C@@H]5O[C@H](CO)[C@@H](O)C5(F)F)c(=O)n4)nn3)[C@@H](CO)O2)c(=O)[nH]c1=O with A549 (enter value)
1.67

Give IC50 (A549) of the following compound: CC(C)(C)OC(=O)O[C@@H]1[C@@H](Cn2cc(COC(=O)Nc3ccn([C@@H]4O[C@H](CO)[C@@H](O)C4(F)F)c(=O)n3)nn2)O[C@@H](n2ccc(N)nc2=O)C1(F)F
2.17

###

# PROTOCOL DESCRIPTION: Selectivity index, ratio of IC50 for cytotoxicity in human NHDF cells to IC50 for cytotoxicity in human U87 cells
RESULT TYPE: Ratio IC50
Answer as a number with no unit attached.

Which value of Ratio IC50 has been reported for Nc1ccn([C@@H]2O[C@H](CO)[C@@H](O)C2(F)F)c(=O)n1 [GEMCITABINE] in the records?
3.73

Which Ratio IC50 is reported for this compound? Cc1cn([C@H]2C[C@H](N=[N+]=[N-])[C@@H](CO)O2)c(=O)[nH]c1=O [ZIDOVUDINE]
1.21

Reported Ratio IC50, compound O=c1[nH]c(=O)n([C@H]2C[C@H](O)[C@@H](CO)O2)cc1F [FLOXURIDINE] : ____
2.13

Any idea what Ratio IC50 was measured for Cc1cn([C@H]2C[C@H](n3cc(COC(=O)Nc4ccn([C@@H]5O[C@H](CO)[C@@H](O)C5(F)F)c(=O)n4)nn3)[C@@H](CO)O2)c(=O)[nH]c1=O ?
3.55

###

# Tested on: A549
# PROTOCOL DESCRIPTION: Cytotoxicity in human A549 cells assessed as reduction in cell viability incubated for 72 hrs by SRB assay
# Assay type: functional, cell-based
# ASSAY CONDITIONS: A549, 72 h
RESULT TYPE: pIC50
pIC50 is defined as minus the log10 of a concentration measured in mol/L.

Can you look up the measured pIC50 of CC(C)(C)OC(=O)O[C@@H]1[C@@H](Cn2cc(COC(=O)Nc3ccn([C@@H]4O[C@H](CO)[C@@H](O)C4(F)F)c(=O)n3)nn2)O[C@@H](n2ccc(NC(=O)OCc3ccccc3)nc2=O)C1(F)F for me?
6.08

Please report the recorded pIC50 for O=C(Nc1ccn([C@@H]2O[C@H](CO)[C@@H](O)C2(F)F)c(=O)n1)OCc1cn(C[C@H]2O[C@@H](n3ccc(NC(=O)OCc4ccccc4)nc3=O)C(F)(F)[C@@H]2O)nn1 .
5.68

Query (compound): CC(C)(C)OC(=O)O[C@H]1C[C@H](n2cc(F)c(=O)[nH]c2=O)O[C@@H]1Cn1cc(CNc2ccn([C@@H]3O[C@H](CO)[C@@H](O)C3(F)F)c(=O)n2)nn1 ; field requested: pIC50
5.23

May I ask what pIC50 has been recorded for Cc1cn([C@H]2C[C@H](O)[C@@H](Cn3cc(COC(=O)Nc4ccn([C@@H]5O[C@H](CO)[C@@H](O)C5(F)F)c(=O)n4)nn3)O2)c(=O)[nH]c1=O ?
4.87

Could you tell me which pIC50 is on file for O=c1[nH]c(=O)n([C@H]2C[C@H](O)[C@@H](CO)O2)cc1F ?
5.23

###

# System: NHDF
# PROTOCOL DESCRIPTION: Cytotoxicity in human NHDF cells assessed as reduction in cell viability incubated for 72 hrs by SRB assay
# Format: cell-based
# label = t if IC50 < 20 µM else f

Take the molecule O=C(Nc1ccn([C@@H]2O[C@H](CO)[C@@H](O)C2(F)F)c(=O)n1)OCc1cn(C[C@H]2O[C@@H](n3cc(F)c(=O)[nH]c3=O)C[C@@H]2O)nn1 and say whether its IC50 is less than 20 µM.
t

Say whether its IC50 is strictly beneath 20 µM. Entry: Nc1ccn([C@@H]2O[C@H](Cn3cc(CNc4ccn([C@@H]5O[C@H](CO)[C@@H](O)C5(F)F)c(=O)n4)nn3)[C@@H](O)C2(F)F)c(=O)n1
f

Strictly below 20 µM: is that where IC50 of Cc1cn([C@H]2C[C@H](N=[N+]=[N-])[C@@H](CO)O2)c(=O)[nH]c1=O [ZIDOVUDINE] sits?
t

Quick check: does Nc1ccn([C@@H]2O[C@H](Cn3cc(COC(=O)Nc4ccn([C@@H]5O[C@H](CO)[C@@H](O)C5(F)F)c(=O)n4)nn3)[C@@H](O)C2(F)F)c(=O)n1 have IC50 under 20 µM?
t

Dear colleague, could you confirm whether IC50 of Nc1ccn([C@@H]2O[C@H](CO)[C@@H](O)[C@@H]2O)c(=O)n1 [CYTARABINE] falls below 20 µM? Thanks.
t

Please check: IC50 for Cc1cn([C@H]2C[C@H](n3cc(CNc4ccn([C@@H]5O[C@H](CO)[C@@H](O)C5(F)F)c(=O)n4)nn3)[C@@H](CO)O2)c(=O)[nH]c1=O , strictly under 20 µM or not?
t

hey, is IC50 for Cc1cn([C@H]2C[C@H](OC(=O)OC(C)(C)C)[C@@H](Cn3cc(CNc4ccn([C@@H]5O[C@H](CO)[C@@H](O)C5(F)F)c(=O)n4)nn3)O2)c(=O)[nH]c1=O lower than 20 µM or not?
t

Strictly below 20 µM: is that where IC50 of Cc1cn([C@H]2C[C@H](O)[C@@H](Cn3cc(CNc4ccn([C@@H]5O[C@H](CO)[C@@H](O)C5(F)F)c(=O)n4)nn3)O2)c(=O)[nH]c1=O sits?
f

is_below(IC50, 20 µM) for O=C(Nc1ccn([C@@H]2O[C@H](CO)[C@@H](O)C2(F)F)c(=O)n1)OCc1cn(C[C@H]2O[C@@H](n3ccc(NC(=O)OCc4ccccc4)nc3=O)C(F)(F)[C@@H]2O)nn1 ?
t

Consider Cc1cn([C@H]2C[C@H](n3cc(COC(=O)Nc4ccn([C@@H]5O[C@H](CO)[C@@H](O)C5(F)F)c(=O)n4)nn3)[C@@H](CO)O2)c(=O)[nH]c1=O . Does its IC50 lie strictly below 20 µM?
t

Check if IC50 falls below 20 µM for CC(C)(C)OC(=O)O[C@@H]1[C@@H](Cn2cc(CNc3ccn([C@@H]4O[C@H](CO)[C@@H](O)C4(F)F)c(=O)n3)nn2)O[C@@H](n2ccc(NC(=O)OCc3ccccc3)nc2=O)C1(F)F .
t

Is 20 µM strictly greater than the molecule's reported IC50? molecule: O=C(Nc1ccn([C@@H]2O[C@H](Cn3cc(CNc4ccn([C@@H]5O[C@H](CO)[C@@H](O)C5(F)F)c(=O)n4)nn3)[C@@H](O)C2(F)F)c(=O)n1)OCc1ccccc1
t

Below 20 µM on IC50? Entry O=c1[nH]c(=O)n([C@H]2C[C@H](O)[C@@H](Cn3cc(CNc4ccn([C@@H]5O[C@H](CO)[C@@H](O)C5(F)F)c(=O)n4)nn3)O2)cc1F
f

Confirm or reject: IC50 of CC(C)(C)OC(=O)O[C@@H]1[C@@H](Cn2cc(COC(=O)Nc3ccn([C@@H]4O[C@H](CO)[C@@H](O)C4(F)F)c(=O)n3)nn2)O[C@@H](n2ccc(N)nc2=O)C1(F)F lies strictly below 20 µM
t
